Target: Ubiquitin-conjugating enzyme E2 N (Homo sapiens, UniProt P61088)
Test: concentration-dependent UBC13 chain formation blockade – biochemical, TR-FRET, reconfirmation, dose response (AID 493182)
Would you mind telling me the reported pIC50 of each entry?
Interpret pIC50 as the negative base-10 log of the concentration measured in mol/L.

Would you kindly share the measured pIC50 for CC(=O)N1N=C(C2C(=O)N(C)C(=O)N(C)C2=O)CC1c1ccccc1 (stereo unspecified) ?
4.71

pIC50 for C#CCOCCOCCOCCNc1nc(N2CCN(C(=O)CCCCCCCCCCNC(=O)Cn3cc(CCCCCN)nn3)CC2)nc(N2CCN(C(=O)CCCCCCCCCCNC(=O)[C@H]([C@@H](C)CC)n3cc(CCCCN=C(N)N)nn3)CC2)n1 ?
5.68

Reported pIC50 for C#CCOCCOCCOCCNc1nc(N2CCN(C(=O)CCCCCCCCCCNC(=O)[C@H](CCCCN)n3cc(CCO)nn3)CC2)nc(N2CCN(C(=O)CCCCCCCCCCNC(=O)[C@H](CCCCN)n3cc(CCCC(=O)O)nn3)CC2)n1 : what is it?
4.98

I would be grateful if you could share the reported pIC50 for Cc1cccc2c1C(=NNC(N)=S)C(=O)N2C1OC(CO)C(O)C(O)C1O (stereo unspecified) .
5.34

pIC50 lookup needed for NC(=S)NN=C1C(=O)N(CCCl)c2ccccc21 , thanks.
4.97

# input molecule: C#CCOCCOCCOCCNc1nc(N2CCN(C(=O)CCCCCCCCCCNC(=O)[C@H](CCCCN)n3cc(CCO)nn3)CC2)nc(N2CCN(C(=O)CCCCCCCCCCNC(=O)[C@@H]([C@H](C)O)n3cc(C)nn3)CC2)n1 ; wanted: its pIC50
5.14

Entry under review: COCCNC(=S)NNC1=c2cc(C)cc(C)c2=NC1=O . Reported pIC50?
6.25

Param item = C#CCOCCOCCOCCNc1nc(N2CCN(C(=O)CCCCCCCCCCNC(=O)[C@@H](CCC(=O)O)n3cc(CCCCCN)nn3)CC2)nc(N2CCN(C(=O)CCCCCCCCCCNC(=O)[C@H]([C@@H](C)CC)n3cc(CCCCCN)nn3)CC2)n1 ; retrieve measured pIC50.
5.18

Look up pIC50: C#CCOCCOCCOCCNc1nc(N2CCN(C(=O)[C@H](CCCCN)n3cc([C@@H](N)CC(C)C)nn3)CC2)nc(N2CCN(C(=O)[C@H](Cc3cc4ccccc4[nH]3)n3cc([C@@H](N)Cc4ccc(O)cc4)nn3)CC2)n1
5.56

Fill blank: measured pIC50 of the molecule CC(C)NC(=S)NNC1=c2cc(C(C)C)ccc2=NC1=O is ____.
5.45

Item CC1=CC(C)(C)N2C(=O)/C(=N\NC(N)=S)c3cccc1c32 has what recorded pIC50?
5.32

* * *

Sequence of the target: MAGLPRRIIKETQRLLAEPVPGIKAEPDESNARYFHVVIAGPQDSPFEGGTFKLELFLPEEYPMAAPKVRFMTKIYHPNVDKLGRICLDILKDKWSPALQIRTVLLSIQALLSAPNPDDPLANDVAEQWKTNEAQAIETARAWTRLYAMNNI
Binarize IC50 at 4 µM; below is 1.0, at or above is 0.0.

hey, is IC50 for C#CCOCCOCCOCCNc1nc(N2CCN(C(=O)CCCCCCCCCCNC(=O)Cn3cc(CCCCCN)nn3)CC2)nc(N2CCN(C(=O)CCCCCCCCCCNC(=O)[C@H]([C@@H](C)CC)n3cc(CCCCCN)nn3)CC2)n1 [MLS002153714] lower than 4 µM or not?
1.0

Please indicate whether the reported IC50 of COc1cc(C2c3c(-c4cccs4)n[nH]c3OC(=N)C2C#N)cc(OC)c1O (stereo unspecified) [SMR000275523] is strictly below 4 µM.
1.0

Check if IC50 falls below 4 µM for C#CCOCCOCCOCCNc1nc(N2CCN(C(=O)CCCCCCCCCCNC(=O)Cn3cc(C[C@@H](C)O)nn3)CC2)nc(N2CCN(C(=O)CCCCCCCCCCNC(=O)[C@H](CCCN=C(N)N)n3cc(C[C@@H](C)CC)nn3)CC2)n1 [MLS002153601] .
0.0

Please indicate whether the reported IC50 of O=C1N=c2ccccc2=C1NNC(=S)NCC1CCCO1 (stereo unspecified) is strictly below 4 µM.
1.0

Given C#CCOCCOCCOCCNc1nc(N2CCN(C(=O)CCCCCCCCCCNC(=O)[C@@H](CCSC)n3cc(CCO)nn3)CC2)nc(N2CCN(C(=O)CCCCCCCCCCNC(=O)[C@H](CO)n3cc(CCCCCN)nn3)CC2)n1 [MLS002153734] , is recorded IC50 strictly lower than 4 µM?
0.0

Attribution: BindingDB's records for doi:10.7270/Q2SB4462
